- experimental.protocol: Selectivity index, ratio of IC50 for cytotoxicity against bovine MDBK cells to IC50 for Trypanocidal activity against Trypanosoma congolense
measured.endpoint: selectivity ratio
Output: the number by itself.

A selection of reference data follows.
# smiles.record, selectivity ratio
measured = [
    ("Oc1ccccc1-c1cnc(-c2cccc(O)c2O)s1", 8.8),
    ("COc1cccc(-c2ncc(-c3ccccc3N)o2)c1OC", 5.2),
    ("COc1ccc(-c2cnc(-c3cccc(OC)c3OC)o2)cc1", 1.3),
]

I am curious: what selectivity ratio value has been reported for COc1cccc(-c2cnc(-c3cccc(OC)c3OC)o2)c1 ?
9.3

Can you handle COc1cccc(-c2ncc(-c3ccc(OC)c(OC)c3OC)o2)c1OC next?
4.2
